Taken from patent US11951100B2.

# assayMethodText: Estimated solubility by solvent aliquot addition, visual inspection
# Type: physicochemical
# details: 2-propanol, organic solvent or mixture, thermodynamic from solid
propertyMeasured: solubility (µg/mL)
Respond with the bare value in µg/mL.

Task: Identify the reported solubility for the following entry. CC(=O)N1CCc2c(C(=O)N3CCC(c4ccc(F)c(F)c4C(F)(F)F)CC3)n[nH]c2C1 [Compound 1]
Output: 4000

###

# assayMethodText: Equilibrium solubility by HPLC, Form C, ambient temperature
# Format: physicochemical
# details: Sodium Lauryl Sulfate 82 mM (10× cmc), aqueous with cosolvent or surfactant or cyclodextrin, thermodynamic from solid, Sodium Lauryl Sulfate; 82 mM (10× cmc); read-out: Solubility by HPLC
propertyMeasured: solubility (µg/mL)
Dear colleague, please return just the value in µg/mL, with no unit written.

Task: Fill in reported solubility for this entry: CC(=O)N1CCc2c(C(=O)N3CCC(c4ccc(F)c(F)c4C(F)(F)F)CC3)n[nH]c2C1 [Compound 1]
Output: 2400

###

# assayMethodText: Log D7.4, shake-flask partitioning
# Type: physicochemical
# details: pH 7.4, shake-flask (Pion, Inc.)
propertyMeasured: logD
In your answer, state the number alone without any accompanying words.

Task: Give the value of logD reported for the following: CC(=O)N1CCc2c(C(=O)N3CCC(c4ccc(F)c(F)c4C(F)(F)F)CC3)n[nH]c2C1
Output: 3.23

###

# assayMethodText: Equilibrium solubility by HPLC, Form C, ambient temperature
# Format: physicochemical
# details: Labrasol, oil or lipid, thermodynamic from solid, Labrasol; read-out: Solubility by HPLC
propertyMeasured: solubility
Report field: quantity (unit follows the number).

Task: Using known records, supply solubility for CC(=O)N1CCc2c(C(=O)N3CCC(c4ccc(F)c(F)c4C(F)(F)F)CC3)n[nH]c2C1
Output: 1700 µg/mL

###

# assayMethodText: Estimated solubility by solvent aliquot addition, visual inspection
# Format: physicochemical
# details: dichloromethane, organic solvent or mixture, thermodynamic from solid
propertyMeasured: solubility (µg/mL)
Field format: number, assumed µg/mL, no unit text.

Task: Tell me its solubility given CC(=O)N1CCc2c(C(=O)N3CCC(c4ccc(F)c(F)c4C(F)(F)F)CC3)n[nH]c2C1 as the entry.
Output: 2000

###

# assayMethodText: Estimated solubility by solvent aliquot addition, visual inspection
# Assay type: physicochemical
# details: dimethylformamide, organic solvent or mixture, thermodynamic from solid
propertyMeasured: solubility (mg/mL)
Your answer should be a plain number; it is taken to be in mg/mL.

Task: Item CC(=O)N1CCc2c(C(=O)N3CCC(c4ccc(F)c(F)c4C(F)(F)F)CC3)n[nH]c2C1 [Compound 1] : provide solubility
Output: 15

###

# assayMethodText: Equilibrium solubility by HPLC, Form C, ambient temperature
# Format: physicochemical
# details: propylene glycol, organic solvent or mixture, thermodynamic from solid, Propylene Glycol; read-out: Solubility by HPLC
propertyMeasured: solubility (µg/mL)
Express your answer in µg/mL, writing the number without its unit.

Task: Provide measured solubility value, entry: CC(=O)N1CCc2c(C(=O)N3CCC(c4ccc(F)c(F)c4C(F)(F)F)CC3)n[nH]c2C1
Output: 2600

###

# assayMethodText: Equilibrium solubility by HPLC, Form C, ambient temperature
# Format: physicochemical
# details: sulfobutylether β-cyclodextrin, 40 wt %, aqueous with cosolvent or surfactant or cyclodextrin, thermodynamic from solid, Sulfobutylether β-CD; 40 wt %; read-out: Solubility by HPLC
propertyMeasured: solubility (µg/mL)
Response body: numeric value in µg/mL, unit text excluded.

Task: # return recorded solubility for input CC(=O)N1CCc2c(C(=O)N3CCC(c4ccc(F)c(F)c4C(F)(F)F)CC3)n[nH]c2C1
Output: 750
